Where these numbers come from: the supplement of paper PMC4858399

Tested on: Caenorhabditis elegans N2
Assay Info: mean nematode size ln(EXT) after 48 h, plate-adjusted (DMSO control set to 6) (ln(EXT), control-adjusted); higher = larger nematodes / less growth inhibition
Run Conditions: 1 µM; exposure time 48 h
What mean nematode size ln(EXT) (ln) was measured for each of the following?
Numbers only.

Example entries and their recorded answers appear below.
compound="COc1cc(S(=O)(=O)O)c(C)cc1N=Nc1c(O)ccc2cc(S(=O)(=O)O)ccc12 [Allura red]" endpoint_value=5.75
compound="O=C(O)Cn1c(=O)n(Cc2ccc(Br)cc2F)c(=O)c2ccc(Cl)cc21 [Zenarestat]" endpoint_value=5.87

Attention now turns to another entry.
Which mean nematode size ln(EXT) (ln) value is on record for CCOC(N)=O [Urethane (ethyl carbamate)] ?
5.93

====

Tested on: Caenorhabditis elegans N2
Assay Info: mean nematode size ln(EXT) after 48 h, plate-adjusted (DMSO control set to 6) (ln(EXT), control-adjusted); higher = larger nematodes / less growth inhibition
Run Conditions: 1 µM; exposure time 48 h
Reported Property: mean nematode size ln(EXT) (ln)
Answers are plain numbers.

Recorded mean nematode size ln(EXT) (ln), per entry:
compound="CC(O)CO (stereo not given) [Propylene glycol]" endpoint_value=5.99
compound="CCC(C)(NC(=O)c1cc(Cl)c(C)c(Cl)c1)C(=O)CCl (stereo not given) [Zoxamide]" endpoint_value=5.81

Give mean nematode size ln(EXT) (ln) for all compounds that follow.
1. O=C(NC(=O)c1c(F)cccc1F)Nc1ccc(OC(F)(F)C(F)OC(F)(F)F)c(Cl)c1 (stereo not given) [Novaluron]
2. O=C(O)C(F)(F)C(F)(F)C(F)(F)C(F)(F)C(F)(F)C(F)(F)C(F)(F)C(F)(F)C(F)(F)F [Perfluorodecanoic acid]
3. CCc1ccc(O)c(C(C)(C)C)c1 [2-tert-Butyl-4-ethylphenol]

1. 5.74
2. 5.87
3. 5.75

====

System: Caenorhabditis elegans N2
Assay Info: AC50 for larval growth inhibition (Hill fit); higher = less potent
Run Conditions: exposure time 48 h
Reported Property: AC50 for larval growth inhibition (µM)
One number for each entry, in µM.

Provide AC50 for larval growth inhibition for all items below, preserving their order.
1. Clc1cc(Cl)c(Cl)cc1Cl [1,2,4,5-Tetrachlorobenzene]
2. ClC1=C(Cl)C2(Cl)C3C(Cl)C=CC3C1(Cl)C2(Cl)Cl (stereo not given) [Heptachlor]
3. ClC(Cl)=C(c1ccc(Cl)cc1)c1ccc(Cl)cc1 [p,p'-DDE]
4. CCCCCC/C(C=O)=C\c1ccccc1 [2-Benzylideneoctanal]
5. N#Cc1cccnc1 [3-Pyridinecarbonitrile]
6. CCO/N=C(\CC)C1=C(O)CC(c2c(C)cc(C)cc2C)CC1=O (stereo not given) [Tralkoxydim]

[110, 6.11, 2.64, 28.8, 18.2, 109]

Quick request: AC50 for larval growth inhibition for each listed item, please.
1. O=P(OC(CCl)CCl)(OC(CCl)CCl)OC(CCl)CCl [Tris(1,3-dichloro-2-propyl) phosphate (TDCPP)]
2. C=C(C)C(=O)OCCC(F)(F)C(F)(F)C(F)(F)C(F)(F)C(F)(F)C(F)(F)F [3,3,4,4,5,5,6,6,7,7,8,8,8-Tridecafluorooctyl methacrylate]
3. CCN(Cc1cccnc1)C(=O)c1cccc(Cl)c1[C@]1(C)C(=O)N(Cc2ccc(OC)cc2OC)c2ccc(Cl)cc21
4. Nc1ccc(N=Nc2ccccc2)cc1 [4-Aminoazobenzene]

117
23
3.78
31.4
